- TEST DETAILS: Cytotoxicity assay (PrestoBlue) MCF-7
- Format: cell-based
- CONDITION CONTEXT: human, MCF-7 cells (breast cancer cell line), 24 h incubation
ENDPOINT NAME: EC50 at 24 h

Some solved cases for reference:
Cc1cc(Nc2c(N)c(=O)c2=O)ccc1-c1ccc(-c2ccc(Nc3c(N)c(=O)c3=O)cc2C)o1 = > 1000 µM
Cc1nc(NC(=N)N)ccc1-c1ccc(-c2ccc(NC(=N)N)nc2C)o1 = > 1000 µM

Now let's try a different one.
Input: Name the reported EC50 at 24 h value associated with the compound `Cc1cc(NC(=N)N)ccc1-c1ccc(-c2ccc(NC(=N)N)cc2C)o1`
Output: > 100 µM
